biological target: HIV-1 MGRM-AG-005 envelope glycoprotein (Env) on pseudovirus (HIV-1); assay: cell-based or functional assay
Measured IC50, pseudovirus neutralization values are reported for all entries that follow.

>  <binder>
PGT-135 monoclonal antibody (antibody, V domains shown) VH: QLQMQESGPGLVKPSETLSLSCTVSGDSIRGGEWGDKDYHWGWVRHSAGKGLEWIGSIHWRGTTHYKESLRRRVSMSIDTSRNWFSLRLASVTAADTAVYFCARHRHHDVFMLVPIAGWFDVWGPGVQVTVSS VL: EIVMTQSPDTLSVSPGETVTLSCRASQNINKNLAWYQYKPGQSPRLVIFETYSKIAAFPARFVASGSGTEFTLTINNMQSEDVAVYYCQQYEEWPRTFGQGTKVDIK

>  <IC50, pseudovirus neutralization>
> 10 µg/mL

$$$$
>  <binder>
PGT-136 monoclonal antibody (antibody, V domains shown) VH: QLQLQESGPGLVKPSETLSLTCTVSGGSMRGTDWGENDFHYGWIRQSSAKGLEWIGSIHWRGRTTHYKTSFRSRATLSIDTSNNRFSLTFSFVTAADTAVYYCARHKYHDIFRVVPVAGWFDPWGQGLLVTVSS VL: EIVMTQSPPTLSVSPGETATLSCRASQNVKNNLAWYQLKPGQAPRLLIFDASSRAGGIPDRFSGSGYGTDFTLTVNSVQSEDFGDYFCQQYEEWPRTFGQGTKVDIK

>  <IC50, pseudovirus neutralization>
> 10 µg/mL

$$$$
>  <binder>
PGT-125 monoclonal antibody (antibody, V domains shown) VH: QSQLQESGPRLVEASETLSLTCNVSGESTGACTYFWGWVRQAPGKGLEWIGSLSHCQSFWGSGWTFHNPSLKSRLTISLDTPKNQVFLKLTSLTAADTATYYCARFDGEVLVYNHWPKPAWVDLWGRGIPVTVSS VL: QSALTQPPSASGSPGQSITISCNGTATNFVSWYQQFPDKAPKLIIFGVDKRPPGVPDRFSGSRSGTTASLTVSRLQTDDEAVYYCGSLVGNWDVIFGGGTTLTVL

>  <IC50, pseudovirus neutralization>
> 10 µg/mL

$$$$
